# TESTED ON: Adenosine receptor A1 (Homo sapiens)
# ASSAY NAME: Displacement of [3H]CCPA from human adenosine A1 receptor expressed in CHO cells at 10 uM
# Format: cell-based
Measured inhibition accompanies every entry in the list below.

>>> df
                                 cpd_smiles                             tested_on  quantity_kind  result_value
0  CCCC/C=C/c1nc(N)c2ncn([C@@H]3SC[C@@H](O)[C@H]3O)c2n1  Adenosine receptor A1 (Homo sapiens)     inhibition         16.2%
1  CCCCC#Cc1nc2c(N)ncnc2n1[C@@H]1SC[C@@H](O)[C@H]1O  Adenosine receptor A1 (Homo sapiens)     inhibition         49.3%
2  CCCC/C=C/c1nc2c(N)ncnc2n1[C@@H]1SC[C@@H](O)[C@H]1O  Adenosine receptor A1 (Homo sapiens)     inhibition          3.7%

Here is the next item to consider.
Request: Look up inhibition for this molecule: CCCCC#Cc1nc(N)c2ncn([C@@H]3SC[C@@H](O)[C@H]3O)c2n1
Result: 38.9%

---

# TESTED ON: Adenosine receptor A2b (Homo sapiens, UniProt P29275)
# Sequence (P29275 whole entry): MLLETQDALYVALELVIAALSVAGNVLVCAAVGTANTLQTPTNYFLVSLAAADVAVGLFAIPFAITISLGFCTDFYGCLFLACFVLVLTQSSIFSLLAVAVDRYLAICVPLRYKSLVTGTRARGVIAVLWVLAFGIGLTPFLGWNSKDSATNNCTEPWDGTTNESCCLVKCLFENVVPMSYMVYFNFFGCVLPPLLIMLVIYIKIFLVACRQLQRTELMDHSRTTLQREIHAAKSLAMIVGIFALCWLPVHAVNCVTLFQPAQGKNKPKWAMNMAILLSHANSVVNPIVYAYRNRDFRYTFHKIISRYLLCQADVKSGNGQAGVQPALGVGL
# ASSAY NAME: Agonist activity at human adenosine A2B receptor expressed in CHO cells by cyclic AMP functional assay
# Type: cell-based
QUANTITY KIND: pEC50
Scale explanation: pEC50 corresponds to minus log10 of a concentration expressed in moles per litre.

Request: So what pEC50 did CCCCC#Cc1nc(N)c2ncn([C@@H]3SC[C@@H](O)[C@H]3O)c2n1 get with Adenosine receptor A2b (Homo sapiens, UniProt P29275)?
Result: 5.00

---

# TESTED ON: Adenosine receptor A2a (Homo sapiens)
# ASSAY NAME: Displacement of [3H]CGS21680 from human adenosine A2A receptor in HEK293 cells
QUANTITY KIND: pKi
For clarity, pKi is expressed as the negative log10 of concentration in mol/L.

Request: Which pKi value belongs to CCCC/C=C/c1nc(N)c2ncn([C@@H]3SC[C@@H](O)[C@H]3O)c2n1 ?
Result: 7.14

---

# TESTED ON: Adenosine receptor A2a (Homo sapiens, UniProt P29274)
# Sequence (P29274 whole entry): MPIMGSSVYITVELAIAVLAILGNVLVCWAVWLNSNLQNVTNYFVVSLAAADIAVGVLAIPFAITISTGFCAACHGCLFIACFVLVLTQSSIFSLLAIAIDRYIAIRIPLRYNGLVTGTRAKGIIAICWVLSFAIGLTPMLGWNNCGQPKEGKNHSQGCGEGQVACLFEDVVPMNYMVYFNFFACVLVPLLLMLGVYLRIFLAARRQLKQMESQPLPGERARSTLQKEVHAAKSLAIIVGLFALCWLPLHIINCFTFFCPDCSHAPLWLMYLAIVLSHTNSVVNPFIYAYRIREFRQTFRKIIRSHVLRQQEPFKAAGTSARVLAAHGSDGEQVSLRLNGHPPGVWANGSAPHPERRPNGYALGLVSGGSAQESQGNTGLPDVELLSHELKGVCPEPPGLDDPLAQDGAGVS
# ASSAY NAME: Displacement of [3H]CGS21680 from human adenosine A2A receptor in HEK293 cells at 10 uM
# Assay type: cell-based
Item-by-item account of inhibition
Just the number please, in %, no unit attached.

Reference set, count: 3
                                 cpd_smiles  readout_units  result_value
0  CCCC/C=C/c1nc(N)c2ncn([C@@H]3SC[C@@H](O)[C@H]3O)c2n1              %          95.9
1  CCCCC#Cc1nc(N)c2ncn([C@@H]3SC[C@@H](O)[C@H]3O)c2n1              %          97.2
2  CCCCC#Cc1nc2c(N)ncnc2n1[C@@H]1SC[C@@H](O)[C@H]1O              %          46.5

As a next step, examine the compound that follows.
Request: # input compound: CCCC/C=C/c1nc2c(N)ncnc2n1[C@@H]1SC[C@@H](O)[C@H]1O ; wanted: its inhibition
Result: 22.8

---

# TESTED ON: Adenosine receptor A2a (Homo sapiens, UniProt P29274)
# ASSAY NAME: Agonist activity at human adenosine A2A receptor expressed in CHO cells by cyclic AMP functional assay
QUANTITY KIND: pEC50
pEC50 is defined as minus the log10 of a concentration measured in mol/L.

Request: Quick check: pEC50 on Adenosine receptor A2a (Homo sapiens, UniProt P29274), item CCCCC#Cc1nc(N)c2ncn([C@@H]3SC[C@@H](O)[C@H]3O)c2n1 ?
Result: 7.92
